tested on: P388; assay: Cytotoxicity against mouse P388 cells; assay type: functional; details: read-out: ED50 (the source's name)
Parameter: EC50. Scope: all listed entries.
measured parameter: EC50 (µg/mL)

[
  {
    "chemical string": "COC(=O)/C=C1/C[C@H]2C[C@]3(O)O[C@H](C[C@@H](O)CC(=O)O[C@@H]([C@@H](C)OC(C)=O)C[C@@H]4C/C(=C/C(=O)OC)C[C@@](O)(O4)C(C)(C)/C=C/[C@@H](C1)O2)C[C@H](OC(=O)C(C)(C)C)C3(C)C",
    "measured parameter": "EC50",
    "numeric value": 0.44
  },
  {
    "chemical string": "CCCC(=O)O[C@H](C)[C@H]1C[C@@H]2C/C(=C/C(=O)OC)C[C@@](O)(O2)C(C)(C)/C=C/[C@H]2C/C(=C\\C(=O)OC)C[C@@H](C[C@]3(O)O[C@H](C[C@@H](O)CC(=O)O1)C[C@H](OC(=O)C(C)(C)C)C3(C)C)O2",
    "measured parameter": "EC50",
    "numeric value": 0.32
  },
  {
    "chemical string": "CCC(=O)O[C@H](C)[C@H]1C[C@@H]2C/C(=C/C(=O)OC)C[C@@](O)(O2)C(C)(C)/C=C/[C@H]2C/C(=C\\C(=O)OC)C[C@@H](C[C@]3(O)O[C@H](C[C@@H](O)CC(=O)O1)C[C@H](OC(=O)C(C)(C)C)C3(C)C)O2",
    "measured parameter": "EC50",
    "numeric value": 0.52
  },
  {
    "chemical string": "COC(=O)/C=C1/C[C@H]2C[C@]3(O)O[C@H](C[C@@H](O)CC(=O)O[C@@H]([C@@H](C)O)C[C@@H]4C/C(=C\\C(=O)OC)C[C@@](O)(O4)C(C)(C)/C=C/[C@@H](C1)O2)C[C@H](OC(=O)C(C)(C)C)C3(C)C",
    "measured parameter": "EC50",
    "numeric value": 0.0018
  }
]
